# Tested on: Streptococcus sp.
# protocol-notes: in vitro antibacterial evaluation, MIC by broth dilution
# Format: cell-based
# conditions: broth dilution, 18 hours at 35° C.
Numbered stars: 1 amine (or outer) side, 2 acyl side, 3 side chain; on linkers, the order of the positions; unused ones are H or OH. Square brackets hold non-standard residues; d marks the D form. Peptide text beside a SMILES is read from it. ξ: configuration not given here. X3 = CC1(C)OCC2OC(N3C(=N)NCC3C(O)C(N[*:1])C(=O)[*:2])C3OC(C)(C)OC3C2O1; ξEnduracididine(βξ-OH,4'ξ) = N=C1NCC(C(O)C(N)C(=O)O)N1; ξPhe(βξ-Me) = CC(c1ccccc1)C(N)C(=O)O
With a cut-off of 1 µg/mL, any MIC Streptococcus pneumoniae (GC 4565) strictly below it is called Met; any MIC Streptococcus pneumoniae (GC 4565) meeting it or above is called Not met.

Q. Quick check: MIC Streptococcus pneumoniae (GC 4565) of CC(c1ccccc1)C1NC(=O)CNC(=O)C(CO)NC(=O)C(C(O)C2CN(Cc3ccccc3)C(=NCc3ccccc3)N2C2OC(CO)C(O)C(O)C2O)NC(=O)C(C(O)C2CN(Cc3ccccc3)C(=NCc3ccccc3)N2Cc2ccccc2)NC(=O)C(Cc2ccc(OC3OC(CO)C(OC4OC(CO)C(O)C(O)C4O)C(O)C3O)cc2)NC1=O (centres unmarked) under 1 µg/mL?
A. Not met

Q. Again, but for N=C1NCC(C(O)C2NC(=O)C(Cc3ccc(OC4OC(CO)C(OC5OC6COC(Cc7ccccc7)OC6C(O)C5O)C(O)C4O)cc3)NC(=O)C(CC3CCCCC3)NC(=O)CNC(=O)C(CO)NC(=O)C(C(O)C3CNC(=N)N3C3OC(CO)C(O)C(O)C3O)NC2=O)N1 (centres unmarked)
A. Met

Q. Again, but for CC(c1ccccc1)C1NC(=O)CNC(=O)C(CO)NC(=O)C(C(O)C2CN(c3nc4ccccc4s3)C(=N)N2C2OC(CO)C(O)C(O)C2O)NC(=O)C(C(O)C2CNC(=Nc3nc4ccccc4s3)N2)NC(=O)C(Cc2ccc(OC3OC(CO)C(OC4OC(CO)C(O)C(O)C4O)C(O)C3O)cc2)NC1=O (centres unmarked)
A. Not met

Q. Again, but for CC(c1ccccc1)C1NC(=O)CNC(=O)C(CO)NC(=O)C(CC2CNC(=N)N2C2OC(CO)C(O)C(O)C2O)NC(=O)C(CC2CNC(=N)N2)NC(=O)C(Cc2ccc(OC3OC(CO)C(OC4OC5COC(c6ccc(OCc7ccccc7)cc6)OC5C(O)C4O)C(O)C3O)cc2)NC1=O (centres unmarked)
A. Not met

Q. Again, but for COc1ccc2cc(COCC3OC(OC4C(CO)OC(Oc5ccc(CC6NC(=O)C(C(C)c7ccccc7)NC(=O)CNC(=O)C(CO)NC(=O)C(CC7CNC(=N)N7C7OC(CO)C(O)C(O)C7O)NC(=O)C(CC7CNC(=N)N7)NC6=O)cc5)C(O)C4O)C(O)C(O)C3O)ccc2c1 (centres unmarked)
A. Not met

Q. Again, but for CN=C1N(C)CC(C(O)C2NC(=O)C(Cc3ccc(OC4OC(CO)C(OC5OC(CO)C(O)C(O)C5O)C(O)C4O)cc3)NC(=O)C(C(C)c3ccccc3)NC(=O)CNC(=O)C(CO)NC(=O)C(C(O)C3CN(C)C(=NC)N3C3OC(CO)C(O)C(O)C3O)NC2=O)N1C (centres unmarked)
A. Not met

Q. Again, but for CC(c1ccccc1)C1NC(=O)CNC(=O)C(CO)NC(=O)C(C(O)C2CNC(=N)N2C2OC3COC(C)(C)OC3C3OC(C)(C)OC32)NC(=O)C(C(O)C2CNC(=N)N2)NC(=O)C(Cc2ccc(O)cc2)NC1=O (stereo not drawn) [Example 247] (cyclo(G[ξPhe(βξ-Me)]Y[ξEnduracididine(βξ-OH,4'ξ)][X3]S); configuration not given here)
A. Not met

Q. Again, but for CC(c1ccccc1)C1NC(=O)CNC(=O)C(CO)NC(=O)C(CC2CNC(=N)N2C2OC(CO)C(O)C(O)C2O)NC(=O)C(CC2CNC(=N)N2)NC(=O)C(Cc2ccc(OC3OC(CO)C(OC4OC(CO)C(OCc5ccc(OCc6ccccc6)cc5)C(O)C4O)C(O)C3O)cc2)NC1=O (centres unmarked) [Example 246a]
A. Met

Q. Again, but for CN=C1N(C)CC(C(O)C2NC(=O)C(Cc3ccc(OC4OC(CO)C(OC5OC6COC7(OC6C(O)C5O)C5CC6CC(C5)CC7C6)C(O)C4O)cc3)NC(=O)C(C(C)c3ccccc3)NC(=O)CNC(=O)C(CO)NC(=O)C(C(O)C3CN(C)C(=NC)N3C3OC(CO)C(O)C(O)C3O)NC2=O)N1C (centres unmarked)
A. Not met

Q. Again, but for Cc1ccc(COCC2OC(OC3C(CO)OC(Oc4ccc(CC5NC(=O)C(C(C)c6ccccc6)NC(=O)CNC(=O)C(CO)NC(=O)C(C(O)C6CNC(=N)N6C6OC(CO)C(O)C(O)C6O)NC(=O)C(C(O)C6CNC(=N)N6)NC5=O)cc4)C(O)C3O)C(O)C(O)C2O)cc1 (centres unmarked)
A. Met

Q. Again, but for CC(c1ccccc1)C1NC(=O)CNC(=O)C(CO)NC(=O)C(C(O)C2CN(Cc3ccc(-c4ccccc4)cc3)C(=N)N2C2OC(CO)C(O)C(O)C2O)NC(=O)C(C(O)C2CNC(=N)N2)NC(=O)C(Cc2ccc(OC3OC(CO)C(OC4OC(CO)C(O)C(O)C4O)C(O)C3O)cc2)NC1=O (centres unmarked) [Example 66a]
A. Not met

Q. Again, but for COc1ccc2cc(COCC3OC(OC4C(CO)OC(Oc5ccc(CC6NC(=O)C(C(C)c7ccccc7)NC(=O)CNC(=O)C(CO)NC(=O)C(C(O)C7CNC(=N)N7C7OC(CO)C(O)C(O)C7O)NC(=O)C(C(O)C7CNC(=N)N7)NC6=O)cc5)C(O)C4O)C(O)C(O)C3O)ccc2c1 (centres unmarked)
A. Met

Q. Again, but for CC(c1ccccc1)C1NC(=O)CNC(=O)C(CO)NC(=O)C(C(O)C2CNC(=N)N2C2OC(CO)C(O)C(O)C2O)NC(=O)C(C(O)C2CNC(=N)N2)NC(=O)C(Cc2ccc(OC3OC(CO)C(OC4OC5COC6(CC(C)(C)CC(C)(C)C6)OC5C(O)C4O)C(O)C3O)cc2)NC1=O (centres unmarked)
A. Met
